biological target: AHK3 (Arabidopsis thaliana); assay: Activation of cytokinin receptors (E. coli KMI001 beta-galactosidase reporter); details: 28 h incubation; n.a. means no activation
Sequence (Q9C5U1 whole entry): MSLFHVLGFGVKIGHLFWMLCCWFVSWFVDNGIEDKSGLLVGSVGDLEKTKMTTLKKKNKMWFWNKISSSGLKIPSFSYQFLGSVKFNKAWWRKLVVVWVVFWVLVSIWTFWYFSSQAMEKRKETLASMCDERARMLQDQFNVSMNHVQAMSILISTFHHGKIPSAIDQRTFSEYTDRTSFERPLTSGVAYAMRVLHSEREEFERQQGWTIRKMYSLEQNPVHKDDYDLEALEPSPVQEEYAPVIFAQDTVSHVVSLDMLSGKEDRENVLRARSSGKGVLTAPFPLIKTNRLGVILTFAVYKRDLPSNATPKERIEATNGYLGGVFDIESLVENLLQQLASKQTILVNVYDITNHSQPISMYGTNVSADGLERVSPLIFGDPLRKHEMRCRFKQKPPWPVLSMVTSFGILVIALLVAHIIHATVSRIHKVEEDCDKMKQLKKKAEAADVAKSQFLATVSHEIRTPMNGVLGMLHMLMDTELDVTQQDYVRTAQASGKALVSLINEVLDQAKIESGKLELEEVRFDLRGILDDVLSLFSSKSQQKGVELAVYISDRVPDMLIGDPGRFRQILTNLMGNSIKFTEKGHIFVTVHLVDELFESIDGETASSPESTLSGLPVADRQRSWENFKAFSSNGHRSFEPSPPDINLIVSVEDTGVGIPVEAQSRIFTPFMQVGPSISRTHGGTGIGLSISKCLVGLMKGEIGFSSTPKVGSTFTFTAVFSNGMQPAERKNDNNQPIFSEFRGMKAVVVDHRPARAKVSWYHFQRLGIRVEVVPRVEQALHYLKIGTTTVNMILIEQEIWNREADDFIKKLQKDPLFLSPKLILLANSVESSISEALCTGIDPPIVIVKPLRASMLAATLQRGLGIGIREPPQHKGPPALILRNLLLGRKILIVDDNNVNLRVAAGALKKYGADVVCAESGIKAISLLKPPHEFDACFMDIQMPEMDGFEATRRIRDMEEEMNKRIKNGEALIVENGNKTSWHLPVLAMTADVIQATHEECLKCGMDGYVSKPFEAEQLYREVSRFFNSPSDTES
Assay readout: EC50 (µM)

# Compound, EC50 (µM)
rows = [
    ("Nc1nc(Nc2ccc(Cl)cc2)c2nc[nH]c2n1 [Compound 67]", 8.1),
    ("C/C(=C\\CNc1ncnc2nc[nH]c12)CO [trans-zeatin, reference compound]", 2.1),
]

P = Oc1cccc(Nc2nc(F)nc3[nH]cnc23)c1 [Compound 48]
Q = COc1cccc(Nc2nc(Cl)nc3nc[nH]c23)c1 [Compound 12, 2-Chloro-6-(3-methoxyanilino)purine]
Decide: P or Q , by lowest recorded EC50. Your choice should be expressed through its label.
Q
(Q: 9.5 µM, P: 15 µM)

====

tested on: Amaranthus caudatus cotyledon/hypocotyl explants; test: Amaranthus bioassay (betacyanin content); format: cell-based, Amaranthus caudatus var. atropurpurea; settings: at the concentration with highest activity, relative to 10^−5 M kinetin
This section presents compounds with their documented Activity (%) [10^−5 mol · l^−1 K = 100%] values.
Write the answer as a number in %, unit excluded.

In one line, give reported Activity (%) [10^−5 mol · l^−1 K = 100%] of the entry COc1cccc(Nc2nc(N)nc3nc[nH]c23)c1 .
123.6

====

molecular target: AHK3 (Arabidopsis thaliana); experiment: Activation of cytokinin receptors (E. coli KMI001 beta-galactosidase reporter); details: 28 h incubation; n.a. means no activation
Assay readout: EC50 (µM)

# Compound, Target or test system, EC50 [µM]
rows = [
    ("COc1cccc(Nc2nc(S)nc3[nH]cnc23)c1", "AHK3 (Arabidopsis thaliana)", 31.7),
    ("COc1ccc(Nc2nc(F)nc3[nH]cnc23)cc1", "AHK3 (Arabidopsis thaliana)", 18.9),
    ("Fc1nc(Nc2ccccc2)c2nc[nH]c2n1", "AHK3 (Arabidopsis thaliana)", 19),
]

I = Oc1cccc(Nc2nc(Cl)nc3nc[nH]c23)c1 [Compound 9, 2-Chloro-6-(3-hydroxyanilino)purine]
II = Fc1ccc(Nc2nc(F)nc3[nH]cnc23)cc1
Decide: I or II , by lowest recorded EC50. Your choice should be expressed through its label.
I
(I: 2.8 µM, II: 22.5 µM)

====

system: Amaranthus caudatus cotyledon/hypocotyl explants; experiment: Amaranthus bioassay (betacyanin content); type: cell-based, Amaranthus caudatus var. atropurpurea; conditions: at the concentration with highest activity, relative to 10^−5 M kinetin
Assay readout: Activity (%) [10^−5 mol · l^−1 K = 100%]
Write the answer as a number in %, unit excluded.

Give Activity (%) [10^−5 mol · l^−1 K = 100%] for Sc1nc(Nc2cccc(Cl)c2)c2nc[nH]c2n1 [Compound 80] tested on Amaranthus caudatus cotyledon/hypocotyl explants.
106

Give Activity (%) [10^−5 mol · l^−1 K = 100%] for CSc1nc(Nc2cccc(F)c2)c2nc[nH]c2n1 [Compound 98] tested on Amaranthus caudatus cotyledon/hypocotyl explants.
142.5

Give Activity (%) [10^−5 mol · l^−1 K = 100%] for Nc1nc(Nc2cccc(Cl)c2)c2nc[nH]c2n1 [Compound 66] tested on Amaranthus caudatus cotyledon/hypocotyl explants.
122

Give Activity (%) [10^−5 mol · l^−1 K = 100%] for Fc1nc(Nc2ccc(Cl)cc2)c2nc[nH]c2n1 [Compound 43] tested on Amaranthus caudatus cotyledon/hypocotyl explants.
102.6

Give Activity (%) [10^−5 mol · l^−1 K = 100%] for COc1cccc(Nc2nc(C)nc3nc[nH]c23)c1 [Compound 118, 2-Methyl-6-(3-methoxyanilino)purine] tested on Amaranthus caudatus cotyledon/hypocotyl explants.
144.2

Give Activity (%) [10^−5 mol · l^−1 K = 100%] for CSc1nc(Nc2cccc(Cl)c2)c2nc[nH]c2n1 [Compound 96] tested on Amaranthus caudatus cotyledon/hypocotyl explants.
145.8

Give Activity (%) [10^−5 mol · l^−1 K = 100%] for Fc1cccc(Nc2nc(F)nc3[nH]cnc23)c1 [Compound 45] tested on Amaranthus caudatus cotyledon/hypocotyl explants.
105.1

Give Activity (%) [10^−5 mol · l^−1 K = 100%] for COc1ccccc1Nc1nc(N)nc2[nH]cnc12 [Compound 74] tested on Amaranthus caudatus cotyledon/hypocotyl explants.
108
